The origin of these recorded values is paper PMC11768344.

- Measurement notes: in vitro drug release, inverted-cup method
- Format: physicochemical
- Experimental setup: PBS pH 7.4 with 0.25% SDS (release medium), pH 7.4; read-out: solubility in the release media
Reported metric: solubility

compound="CCCCCCCCCCCC(=O)OCN1C(=O)CCc2ccc(OCCCCN3CCN(c4cccc(Cl)c4Cl)CC3)cc21 [APL, aripiprazole lauroxil, reference compound]" result="~209 µM"

Let us move to another entry and its solubility.
[in] Tell me measured solubility for CCCCCCCCCCCCCCCCCC(=O)OCN(C(=O)C1CCCCN1CCC)c1c(C)cccc1C (centres unmarked) please.
[out] ~1500 µM
